TESTED_ON: Cytochrome P450 (CYP) 2D6 enzyme (Homo sapiens, UniProt P10635)
Construct: using pooled male and female human liver microsomes; from tissue; host or cells: pooled male and female human liver microsomes
Sequence (P10635 whole entry): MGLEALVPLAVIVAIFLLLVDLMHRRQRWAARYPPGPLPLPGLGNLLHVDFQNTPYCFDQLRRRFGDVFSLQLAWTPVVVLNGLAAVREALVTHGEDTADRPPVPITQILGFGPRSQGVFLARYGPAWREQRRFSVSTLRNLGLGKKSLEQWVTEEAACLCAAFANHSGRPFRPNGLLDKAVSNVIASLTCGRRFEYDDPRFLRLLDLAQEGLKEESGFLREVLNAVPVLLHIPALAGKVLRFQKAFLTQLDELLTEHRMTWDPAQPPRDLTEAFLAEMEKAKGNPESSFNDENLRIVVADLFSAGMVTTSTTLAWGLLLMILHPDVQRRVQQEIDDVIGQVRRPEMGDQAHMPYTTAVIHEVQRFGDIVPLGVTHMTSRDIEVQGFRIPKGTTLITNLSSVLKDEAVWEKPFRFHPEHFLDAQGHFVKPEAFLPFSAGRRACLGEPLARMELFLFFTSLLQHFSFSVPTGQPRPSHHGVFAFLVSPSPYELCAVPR
EXPERIMENTAL_DETAILS: Cytochrome P450 (CYP) 2D6 enzyme time dependent inhibition (TDI) assay
Assay type: in vitro ADME
CONDITION_DETAILS: t = 30 min pre-incubation, human liver microsomes; read-out: CYP2D6 inhibition, IC50 (μM) t = 30 min
# Lookup of reported IC50 keyed by entry
Numeric answer only, unit µM assumed.

>>> reported_result("Cc1cc(-c2cncc(-c3nc4nccc(C)c4[nH]3)c2N2CC[C@](C)(N)C2)ccc1F [Compound 2-188]")
8.7
>>> reported_result("Cc1cccc2nc(-c3cncc(-c4cc(F)cc(F)c4)c3N3CC[C@H](N)C3)[nH]c12 [Compound 2-201]")
1.8
>>> reported_result("Cc1cccc2nc(-c3cncc(-c4cc(F)cc(C(F)(F)F)c4)c3N3CC[C@H](N)C3)[nH]c12 [Compound 2-185]")
2.3
>>> reported_result("COc1cc(F)cc(-c2cncc(-c3nc4c(C)cccc4[nH]3)c2N2CC[C@H](N)C2)c1 [Compound 2-184]")
2.5

stdin: I'm curious: which IC50 was measured for Cc1cccc2nc(-c3cncc(-c4cc(F)cc(Cl)c4)c3N3CC[C@H](N)C3)[nH]c12 [Compound 2-183] tested on Cytochrome P450 (CYP) 2D6 enzyme (Homo sapiens, UniProt P10635)?
stdout: 3.5

stdin: I'm curious: which IC50 was measured for Cc1cc(F)cc(-c2cncc(-c3nc4cccc(C)c4[nH]3)c2N2CC[C@H](N)C2)c1 [Compound 2-182] tested on Cytochrome P450 (CYP) 2D6 enzyme (Homo sapiens, UniProt P10635)?
stdout: 6.5

* * *

TESTED_ON: human somatostatin receptor subtype 5 (Homo sapiens, UniProt P35346)
Sequence (P35346 whole entry): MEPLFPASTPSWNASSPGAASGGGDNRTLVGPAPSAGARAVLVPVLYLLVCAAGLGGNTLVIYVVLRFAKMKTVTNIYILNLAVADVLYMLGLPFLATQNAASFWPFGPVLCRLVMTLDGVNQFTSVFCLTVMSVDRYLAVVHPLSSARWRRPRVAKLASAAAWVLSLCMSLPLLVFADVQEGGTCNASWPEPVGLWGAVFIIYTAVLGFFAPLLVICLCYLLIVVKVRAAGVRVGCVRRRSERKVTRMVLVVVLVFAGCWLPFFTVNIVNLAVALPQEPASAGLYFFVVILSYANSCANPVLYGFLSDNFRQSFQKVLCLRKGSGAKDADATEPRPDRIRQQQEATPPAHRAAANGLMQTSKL
EXPERIMENTAL_DETAILS: cAMP assay for SST5R (inhibition of cAMP via human SST5 receptor)
CONDITION_DETAILS: SST5 over SST2, class symbols
PROPERTY_LABEL: Fold selectivity for SST5 vs SST2

>>> reported_result("Cc1ccnc2nc(-c3cncc(-c4cccc(C#N)c4)c3N3CCC(C)(N)C3)[nH]c12 (stereo not drawn) [Compound 2-122]")
"++ (++=100 to 499)"
>>> reported_result("CC1(N)CCN(c2c(-c3cccc(S(C)(=O)=O)c3)cncc2-c2nc3cccc(F)c3[nH]2)C1 (stereo not drawn) [Compound 2-21]")
"+++ (+++=≥500)"
>>> reported_result("CC1(N)CCN(c2c(-c3cccc(Cl)c3)cncc2-c2nc3cccc(F)c3[nH]2)C1 (stereo not drawn) [Compound 2-28]")
"++ (++=100 to 499)"
>>> reported_result("NC(=O)c1cccc(-c2cncc(-c3nc4c(F)ccc(F)c4[nH]3)c2N2CC[C@H](N)C2)c1 [Compound 2-43]")
"+++ (+++=≥500)"
>>> reported_result("Cc1cc(F)cc(-c2cncc(-c3nc4cc(C)ccc4[nH]3)c2N2CC(CN)C2)c1 [Compound 1-10]")
"+++ (+++=≥500)"

stdin: Given Cc1cc(F)cc(-c2cncc(-c3nc4cccc(C)c4[nH]3)c2N2CC(CN)C2)c1 [Compound 1-9] , state its recorded Fold selectivity for SST5 vs SST2.
stdout: +++ (+++=≥500)

stdin: Given Cn1c(-c2cncc(-c3ccc(F)c(C#N)c3)c2N2CC[C@H](N)C2)nc2c(Cl)cccc21 [Compound 2-131] , state its recorded Fold selectivity for SST5 vs SST2.
stdout: +++ (+++=≥500)

stdin: Given Cc1cc(-c2cncc(-c3nc4c(F)cccc4[nH]3)c2N2CC[C@](C)(N)C2)ccn1 [Compound 2-178] , state its recorded Fold selectivity for SST5 vs SST2.
stdout: ++ (++=100 to 499)

stdin: Given Cc1cc(F)cc(-c2cncc(-c3nc4cccc(C#N)c4[nH]3)c2N2CC(CN)C2)c1 [Compound 1-5] , state its recorded Fold selectivity for SST5 vs SST2.
stdout: +++ (+++=≥500)

stdin: Given N#Cc1cc(-c2cncc(-c3nc4c(F)ccc(F)c4[nH]3)c2N2CC[C@H](N)C2)ccc1F [Compound 2-44] , state its recorded Fold selectivity for SST5 vs SST2.
stdout: +++ (+++=≥500)

stdin: Given Cc1cccc2nc(-c3cncc(-c4ccnc(C#N)c4)c3N3CC[C@H](N)C3)[nH]c12 [Compound 2-128] , state its recorded Fold selectivity for SST5 vs SST2.
stdout: +++ (+++=≥500)

stdin: Given Cc1ccc(-c2cncc(-c3nc4c(F)ccc(F)c4[nH]3)c2N2CC[C@H](N)C2)cc1C#N [Compound 2-49] , state its recorded Fold selectivity for SST5 vs SST2.
stdout: ++ (++=100 to 499)

stdin: Given Cc1ccnc2nc(-c3cncc(-c4ccc(F)c(Cl)c4)c3N3CC[C@](C)(N)C3)[nH]c12 [Compound 2-192] , state its recorded Fold selectivity for SST5 vs SST2.
stdout: ++ (++=100 to 499)

stdin: Given COc1ccnc2nc(-c3cncc(-c4ccc(F)c(C#N)c4)c3N3CC[C@](C)(N)C3)[nH]c12 [Compound 2-172] , state its recorded Fold selectivity for SST5 vs SST2.
stdout: +++ (+++=≥500)

stdin: Given N#Cc1cccc(-c2cncc(-c3nc4cccc(Br)c4[nH]3)c2N2CC[C@H](N)C2)c1 [Compound 2-57] , state its recorded Fold selectivity for SST5 vs SST2.
stdout: +++ (+++=≥500)

stdin: Given Cc1ccc(F)c2[nH]c(-c3cncc(-c4ccnc(C#N)c4)c3N3CC[C@H](N)C3)nc12 [Compound 2-106] , state its recorded Fold selectivity for SST5 vs SST2.
stdout: +++ (+++=≥500)

stdin: Given Cc1cncc2nc(-c3cncc(-c4ccc(F)c(C#N)c4)c3N3CCC(C)(N)C3)[nH]c12 (stereo not drawn) [Compound 2-149] , state its recorded Fold selectivity for SST5 vs SST2.
stdout: ++ (++=100 to 499)

stdin: Given Cc1cccc2nc(-c3cncc(-c4ccc(F)c(C(N)=O)c4)c3N3CCC(C)(N)C3)[nH]c12 (stereo not drawn) [Compound 2-124] , state its recorded Fold selectivity for SST5 vs SST2.
stdout: +++ (+++=≥500)

stdin: Given CCn1c(-c2cncc(-c3ccc(F)c(C#N)c3)c2N2CC[C@H](N)C2)nc2c(F)cccc21 [Compound 2-142] , state its recorded Fold selectivity for SST5 vs SST2.
stdout: +++ (+++=≥500)

stdin: Given Cc1cccc2nc(-c3cncc(-c4cc(F)cc(C#N)c4)c3N3CC[C@@](N)(CO)C3)[nH]c12 [Compound 2-135] , state its recorded Fold selectivity for SST5 vs SST2.
stdout: ++ (++=100 to 499)

stdin: Given C[C@]1(N)CCN(c2c(-c3ccnc(C#N)c3)cncc2-c2nc3cccc(C(F)(F)F)c3[nH]2)C1 [Compound 2-175] , state its recorded Fold selectivity for SST5 vs SST2.
stdout: +++ (+++=≥500)

stdin: Given Cc1ccnc2nc(-c3cncc(-c4cc(F)cc(C#N)c4)c3N3CCC(C)(N)C3)[nH]c12 (stereo not drawn) [Compound 2-108] , state its recorded Fold selectivity for SST5 vs SST2.
stdout: ++ (++=100 to 499)

stdin: Given CC1(N)CCN(c2c(-c3cccc(C#N)c3)cncc2-c2nc3cccc(F)c3[nH]2)C1 (stereo not drawn) [Compound 2-13] , state its recorded Fold selectivity for SST5 vs SST2.
stdout: +++ (+++=≥500)

stdin: Given Cn1c(-c2cncc(-c3cccc(C#N)c3)c2N2CC[C@H](N)C2)nc2cccc(Cl)c21 [Compound 2-76] , state its recorded Fold selectivity for SST5 vs SST2.
stdout: +++ (+++=≥500)

stdin: Given Cc1ccnc2[nH]c(-c3cncc(-c4cccc(C#N)c4)c3N3CC[C@](C)(N)C3)nc12 [Compound 2-155] , state its recorded Fold selectivity for SST5 vs SST2.
stdout: ++ (++=100 to 499)

stdin: Given N#Cc1cc(-c2cncc(-c3nc4cccc(C(F)(F)F)c4[nH]3)c2N2CC[C@H](N)C2)ccc1F [Compound 2-60] , state its recorded Fold selectivity for SST5 vs SST2.
stdout: ++ (++=100 to 499)

stdin: Given Cc1ccc(F)c2[nH]c(-c3cncc(-c4cc(F)cc(C#N)c4)c3N3CC[C@H](N)C3)nc12 [Compound 2-63] , state its recorded Fold selectivity for SST5 vs SST2.
stdout: +++ (+++=≥500)

* * *

TESTED_ON: human somatostatin receptor subtype 3 (Homo sapiens)
Construct: expressed in transfected cells
Sequence (P32745 whole entry): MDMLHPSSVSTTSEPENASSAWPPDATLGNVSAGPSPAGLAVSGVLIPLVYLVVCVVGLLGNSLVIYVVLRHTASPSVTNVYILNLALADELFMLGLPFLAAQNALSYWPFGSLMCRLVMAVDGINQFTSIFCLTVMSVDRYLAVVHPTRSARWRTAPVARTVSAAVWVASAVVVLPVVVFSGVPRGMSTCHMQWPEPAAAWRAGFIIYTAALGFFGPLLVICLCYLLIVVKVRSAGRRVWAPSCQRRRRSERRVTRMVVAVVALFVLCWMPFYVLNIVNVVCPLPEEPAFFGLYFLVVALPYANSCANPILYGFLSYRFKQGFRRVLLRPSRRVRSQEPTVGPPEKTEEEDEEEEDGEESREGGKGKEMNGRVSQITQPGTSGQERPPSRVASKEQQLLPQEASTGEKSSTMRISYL
EXPERIMENTAL_DETAILS: cAMP assay for SST3R (inhibition of cAMP via human SST3 receptor)
Type: cell-based
CONDITION_DETAILS: from inhibition of cAMP via human SST5 receptor and human SST3 receptor
Tag: TRUE if measured Fold selectivity for SST5 vs SST3 is not below 90 fold, FALSE if it is.

>>> group("Cc1ccnc2nc(-c3cncc(-c4ccc(F)c(C(F)(F)F)c4)c3N3CC[C@](C)(N)C3)[nH]c12")
"FALSE"
>>> group("Cc1ccc(F)c2nc(-c3cncc(-c4cccc(C#N)c4)c3N3CC[C@H](N)C3)[nH]c12")
"FALSE"
>>> group("C[C@]1(N)CCN(c2c(-c3ccc(F)c(C#N)c3)cncc2-c2nc3cccc(C#N)c3[nH]2)C1")
"TRUE"
>>> group("Cc1cc(-c2cncc(-c3nc4c(F)cccc4[nH]3)c2N2CC[C@](C)(N)C2)ccn1")
"TRUE"
>>> group("C[C@]1(N)CCN(c2c(-c3cccc(C#N)c3)cncc2-c2nc3c(F)cccc3[nH]2)C1")
"TRUE"

Continue with the molecule presented below.
stdin: Determine whether measured Fold selectivity for SST5 vs SST3 meets or exceeds 90 fold for `COc1cc(-c2cncc(-c3nc4c(F)cccc4[nH]3)c2N2CC[C@](C)(N)C2)ccn1`
stdout: TRUE
